target: LRRK2 (Homo sapiens, UniProt Q5S007, G2019S); construct: purchased Invitrogen PV4882 (lot 567054A); assay: In Vitro LRRK2 Assay (LabChip 3000, fluorescently-labeled peptide substrate, ATP); type: biochemical; conditions: read-out: LRRK2 Ki (KI), Table 8
Sequence (Q5S007 whole entry G2019S): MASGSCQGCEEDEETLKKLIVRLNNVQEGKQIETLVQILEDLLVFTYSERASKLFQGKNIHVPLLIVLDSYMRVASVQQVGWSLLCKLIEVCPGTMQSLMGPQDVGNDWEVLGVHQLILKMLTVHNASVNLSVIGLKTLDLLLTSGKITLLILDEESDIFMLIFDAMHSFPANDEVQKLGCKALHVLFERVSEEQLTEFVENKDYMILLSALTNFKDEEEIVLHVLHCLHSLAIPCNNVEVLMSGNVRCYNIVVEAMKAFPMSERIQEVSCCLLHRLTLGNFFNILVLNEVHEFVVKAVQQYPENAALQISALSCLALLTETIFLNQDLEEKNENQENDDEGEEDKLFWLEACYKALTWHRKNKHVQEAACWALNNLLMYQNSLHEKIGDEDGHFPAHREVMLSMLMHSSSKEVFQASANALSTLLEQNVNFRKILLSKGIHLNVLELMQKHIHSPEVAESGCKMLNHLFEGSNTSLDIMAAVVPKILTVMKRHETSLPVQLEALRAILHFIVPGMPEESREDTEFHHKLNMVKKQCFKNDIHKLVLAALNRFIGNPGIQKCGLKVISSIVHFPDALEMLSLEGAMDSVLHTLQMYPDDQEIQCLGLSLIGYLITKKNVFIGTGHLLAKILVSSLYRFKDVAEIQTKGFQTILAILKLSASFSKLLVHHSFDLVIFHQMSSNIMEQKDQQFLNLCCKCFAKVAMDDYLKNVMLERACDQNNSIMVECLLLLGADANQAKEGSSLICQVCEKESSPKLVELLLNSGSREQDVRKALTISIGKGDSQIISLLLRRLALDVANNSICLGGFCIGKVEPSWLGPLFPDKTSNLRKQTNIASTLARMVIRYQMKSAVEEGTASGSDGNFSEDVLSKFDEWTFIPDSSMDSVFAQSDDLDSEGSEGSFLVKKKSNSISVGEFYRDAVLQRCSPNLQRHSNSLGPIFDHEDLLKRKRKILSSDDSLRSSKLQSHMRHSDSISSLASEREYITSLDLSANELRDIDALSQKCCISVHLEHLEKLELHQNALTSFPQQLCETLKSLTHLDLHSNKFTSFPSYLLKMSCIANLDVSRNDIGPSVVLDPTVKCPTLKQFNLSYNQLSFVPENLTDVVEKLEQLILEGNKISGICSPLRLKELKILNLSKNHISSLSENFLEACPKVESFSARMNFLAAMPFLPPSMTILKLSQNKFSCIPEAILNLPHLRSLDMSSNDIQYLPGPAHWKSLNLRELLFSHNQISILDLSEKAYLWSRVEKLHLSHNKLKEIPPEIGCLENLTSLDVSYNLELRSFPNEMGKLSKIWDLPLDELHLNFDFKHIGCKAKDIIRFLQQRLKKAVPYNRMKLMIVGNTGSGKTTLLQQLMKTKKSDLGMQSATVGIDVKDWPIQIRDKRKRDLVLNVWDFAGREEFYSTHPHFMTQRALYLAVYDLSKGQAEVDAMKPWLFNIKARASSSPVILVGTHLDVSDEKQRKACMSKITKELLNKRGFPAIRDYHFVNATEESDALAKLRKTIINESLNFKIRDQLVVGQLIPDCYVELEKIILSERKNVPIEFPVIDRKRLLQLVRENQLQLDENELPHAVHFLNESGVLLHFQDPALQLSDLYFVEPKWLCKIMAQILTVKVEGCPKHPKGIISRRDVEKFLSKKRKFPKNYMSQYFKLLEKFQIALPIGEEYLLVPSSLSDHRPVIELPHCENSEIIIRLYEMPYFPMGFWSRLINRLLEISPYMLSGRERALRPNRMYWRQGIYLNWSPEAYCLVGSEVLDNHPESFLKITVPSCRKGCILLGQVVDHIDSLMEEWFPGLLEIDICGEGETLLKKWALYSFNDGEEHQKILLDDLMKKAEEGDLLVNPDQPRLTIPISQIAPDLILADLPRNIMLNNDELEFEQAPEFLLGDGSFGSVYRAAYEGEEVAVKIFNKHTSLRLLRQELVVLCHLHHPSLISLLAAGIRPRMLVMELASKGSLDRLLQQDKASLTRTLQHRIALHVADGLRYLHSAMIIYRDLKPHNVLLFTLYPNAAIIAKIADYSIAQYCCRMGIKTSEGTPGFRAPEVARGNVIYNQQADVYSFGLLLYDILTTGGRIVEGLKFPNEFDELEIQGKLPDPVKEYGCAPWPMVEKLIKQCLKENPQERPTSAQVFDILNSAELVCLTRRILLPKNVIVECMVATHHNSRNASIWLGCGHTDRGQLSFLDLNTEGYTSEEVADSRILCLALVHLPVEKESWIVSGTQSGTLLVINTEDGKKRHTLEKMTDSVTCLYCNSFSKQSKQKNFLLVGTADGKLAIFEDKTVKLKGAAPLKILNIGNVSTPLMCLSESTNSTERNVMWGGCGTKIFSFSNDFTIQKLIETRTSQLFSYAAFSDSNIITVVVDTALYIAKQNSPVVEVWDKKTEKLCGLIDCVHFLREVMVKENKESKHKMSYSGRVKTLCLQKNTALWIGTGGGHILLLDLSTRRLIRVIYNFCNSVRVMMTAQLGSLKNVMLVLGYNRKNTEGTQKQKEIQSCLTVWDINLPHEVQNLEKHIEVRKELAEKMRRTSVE
Value type: Ki

>>> df
                                    compound   result
 0  CCC(C)S(=O)(=O)n1cc(Nc2ncc(C(F)(F)F)c(NC)n2)c(C)n1 (centres unmarked)  11.7 nM
 1          CCCn1cc(Nc2ncc(Br)c(NC)n2)c(C)n1    12 nM
 2    CCNc1nc(Nc2cn(C)nc2C2CCC2)ncc1C(F)(F)F   1.3 nM
 3  CCNc1nc(Nc2cn(S(=O)(=O)C3CC3)nc2C)ncc1C(F)(F)F   0.9 nM
 4  CCNc1nc(Nc2cn(C3CCNCC3F)nc2C)ncc1C(F)(F)F (centres unmarked)   0.7 nM
 5  CNc1nc(Nc2cn(Cc3cccc(C)n3)nc2C)ncc1C(F)(F)F   0.6 nM
 6  CCNc1nc(Nc2cnn(C3CCN(C4COC4)CC3F)c2Cl)ncc1C(F)(F)F (centres unmarked)   0.6 nM
 7  CCNc1nc(Nc2cn([C@H]3CCCN(C4COC4)C3)nc2C)ncc1C(F)(F)F   8.5 nM
 8  CNc1nc(Nc2cn(C(C)(C)c3nnc[nH]3)nc2C)ncc1C(F)(F)F   2.3 nM
 9  CNc1nc(Nc2cn(-c3cncnc3)nc2C)ncc1C(F)(F)F   6.1 nM
10  CNc1nc(Nc2cnn(C(C)c3ccccn3)c2C)ncc1C(F)(F)F (centres unmarked)   3.8 nM
11  CNc1nc(Nc2cnn(Cc3ccccn3)c2C)ncc1C(F)(F)F   2.9 nM
12          CNc1nc(Nc2[nH]ncc2C)ncc1C(F)(F)F   232 nM
13  CNc1nc(Nc2cnn(C3CN(C(C)C)C3)c2C)ncc1C(F)(F)F   1.2 nM
14  CNc1nc(Nc2cnn(Cc3cccnn3)c2C)ncc1C(F)(F)F   2.8 nM
15  CNc1nc(Nc2cnn(C(C)(C)COC)c2C)ncc1C(F)(F)F    42 nM
16    CNc1nc(Nc2cn(-c3ccc(Cl)cc3)nc2C)ncc1Br   0.3 nM
17  CNc1nc(Nc2cn(Cc3cccnc3)nc2C)ncc1C(F)(F)F    25 nM
18  CCNc1nc(Nc2cnn([C@H]3CCCN(C)C3)c2C)ncc1C(F)(F)F   1.2 nM
19  CNc1nc(Nc2cnn(C3CCN(C(=O)C(C)C)CC3)c2C)ncc1C(F)(F)F   6.8 nM
20  CNc1nc(Nc2cn(-c3ccc(C(=O)N(C)C)cc3)nc2C)ncc1C(F)(F)F   5.7 nM
21  CNc1nc(Nc2cn(CC(C)(C)O)nc2C2CC2)ncc1C(F)(F)F   5.1 nM
22          CCNc1nc(Nc2cn(C3COC3)nc2C)ncc1Br   1.4 nM
23  CNc1nc(Nc2cn(C(C)c3ccccn3)nc2C)ncc1C(F)(F)F (centres unmarked)   2.4 nM
24  CCNc1nc(Nc2cn(C(C)(C)c3ccn(C)n3)nc2C)ncc1C(F)(F)F  21.7 nM
25  CNc1nc(Nc2cnn(-c3ccc(C#N)cc3)c2C)ncc1C(F)(F)F    17 nM
26  CNc1nc(Nc2cnn(C3CCC(=O)NC3)c2C)ncc1C(F)(F)F (centres unmarked)   2.2 nM
27  CNc1nc(Nc2cn([C@@H]3CCN(C4COC4)C3)nc2C)ncc1C(F)(F)F    29 nM
28        CNc1nc(Nc2cn(CC(F)(F)F)nc2C)ncc1Br   1.2 nM

* * *

The following compounds are listed with their measured pKi values.
target: LRRK2 (Homo sapiens, UniProt Q5S007, G2019S); construct: purchased Invitrogen PV4882 (lot 567054A); experiment: In Vitro LRRK2 Assay (LabChip 3000, fluorescently-labeled peptide substrate, ATP); format: biochemical; conditions: read-out: LRRK2 Ki (KI), Table 8
pKi: −log10 of the molar value.
Value type: pKi

>>> print(df.to_string())
                                   compound  value_type  number
0  CNc1nc(Nc2cn(C3CCOC3)nc2C)ncc1C(F)(F)F (stereo not shown)         pKi    8.17
1  CNc1nc(Nc2cn(C3CCN(CC(F)(F)F)CC3)nc2C)ncc1Br         pKi    7.89
2      CNc1nc(Nc2cnn(C(F)F)c2C)ncc1C(F)(F)F         pKi    8.72
3  CCNc1nc(Nc2cn(S(=O)(=O)C(C)C)nc2C)ncc1C(F)(F)F         pKi    8.41
4  CNc1nc(Nc2cnn(CC3(C)COC3)c2C)ncc1C(F)(F)F         pKi    8.05
5  CCNc1nc(Nc2cnn(C3CCN(C)CC3)c2C)ncc1C(F)(F)F         pKi    8.59
6  CCNc1nc(Nc2cnn([C@H]3CCCN(C4COC4)C3)c2C)ncc1C(F)(F)F         pKi    9.52

* * *

target: LRRK2 (Homo sapiens, UniProt Q5S007, G2019S); construct: purchased Invitrogen PV4882 (lot 567054A); assay: In Vitro LRRK2 Assay (LabChip 3000, fluorescently-labeled peptide substrate, ATP); assay type: biochemical; settings: read-out: LRRK2 Ki (KI), Table 7
pKi: −log10 of the molar value.
Value type: pKi

>>> print(df.to_string())
                                    compound  number
 0  CNc1nc(Nc2cn(C(C)C)nc2C)ncc1Cl [Example 31]    7.92
 1  COc1nc(Nc2cn(CC(C)(C)O)nc2C)ncc1Cl [Example 23]    7.57
 2  CNc1nc(Nc2c(C)nn(C)c2C)ncc1C(F)(F)F [Example 10]    7.02
 3  Cc1c(Nc2ncc(C(F)(F)F)c(N3CCCC3)n2)cnn1C [Example 13]    7.92
 4  COc1nc(Nc2cn(C(C)C)nc2C)ncc1Cl [Example 29]    7.66
 5  COc1nc(Nc2cn(C3CCOCC3)nc2C)ncc1Cl [Example 65]    8.54
 6  COc1nc(Nc2cn(-c3ccc(C#N)cc3)nc2C)ncc1Cl [Example 68]    8.62
 7  COc1nc(Nc2cnn(-c3ccc(C#N)cc3)c2C)ncc1Cl [Example 83]    8.05
 8  CNc1nc(Nc2cn(C3COC3)nc2C)ncc1Cl [Example 27]    8.06
 9  COc1nc(Nc2cnn(-c3ccc(C(=O)N(C)C)cc3)c2C)ncc1Cl [Example 82]    6.20
10  COc1nc(Nc2cnn(C3CCN(C(=O)C4(C)CC4)CC3)c2C)ncc1Cl [Example 67]    7.05
11  COc1nc(Nc2cnn(-c3ccc(S(C)(=O)=O)cc3)c2C)ncc1Cl [Example 60]    7.82
